- test-summary: EWS/Fli-driven NR0B1 reporter inhibitors, primary screen, A673 cells, NR0B1 luciferase, luminescence, MLPCN library (AID 651661);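 further: firefly luciferase signal divided by Alamar Blue viability fluorescence both relative to DMSO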
- experimental-parameters: viability-normalised, at 12.6 µM, active compounds read high
The campaign covered roughly 350,000 compounds. About 2,300 (0.66%) were called active. For the sample, actives were picked, then their nearest neighbours and some compounds at random.
Kindly state inhibition for each of the entries shown.
Reply with just the number (in %).

Q. What inhibition value was documented for this compound, COc1ccc2c3c(n(C)c2c1)[C@H](CO)NCC31CCN(C(=O)Nc2ccccc2F)CC1 ?
A. 9.22

Q. Quick one: inhibition of COc1cccc(S(=O)(=O)N2C[C@@H](O)COC[C@@H]3O[C@H](CC(=O)N4CCN(C)CC4)CC[C@H]32)c1 ?
A. 2.56

Q. What inhibition value was documented for this compound, O=C(C[C@@H]1CC[C@H](NC(=O)C2CC2)[C@H](CO)O1)NCc1ccccc1Cl ?
A. -4.63

Q. Need inhibition of O=C(C1CCCC1)N1CC(=O)N2[C@H](CO)[C@H](c3ccc(Br)cc3)[C@H]2C1 , thanks.
A. -4.8

Q. Query: inhibition; subject: C[C@H](CO)N1C[C@H](C)[C@@H](CN(C)Cc2ccc(-c3ccccc3)cc2)Oc2ccc(NC(=O)CCCN(C)C)cc2CC1=O
A. 4.89

Q. Recorded inhibition for O=C(CC1CC1)N1[C@@H]2CN(S(=O)(=O)c3ccc(F)cc3)c3ccccc3[C@@H]2[C@@H]1CO , please?
A. 2.01

Q. For the compound shown here, Cn1cnc(S(=O)(=O)N[C@H]2C=C[C@H](CC(=O)NCC3CCCCC3)O[C@@H]2CO)c1 , give the reported inhibition.
A. -0.245

Q. Return reported inhibition; argument: CO[C@H]1CN(C)C(=O)c2ccc(NC(=O)C3CCC3)cc2OC[C@@H](C)NC[C@H]1C
A. 10.2

* * *

- test-summary: EWS/Fli-driven NR0B1 reporter inhibitors, primary screen, A673 cells, NR0B1 luciferase, luminescence, MLPCN library (AID 651661);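 further: firefly luciferase signal divided by Alamar Blue viability fluorescence both relative to DMSO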
- experimental-parameters: viability-normalised, at 12.6 µM
The campaign covered roughly 350,000 compounds. About 2,300 (0.66%) were called active.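 Rule for the calls: active = mean inhibition of at least 50% after viability correction, with every replicate also passing that limit; inconclusive = mean reaches 50% but only one of two replicates passes; inactive = the rest.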 Shown is part of a subset that was picked to be rich in actives.
Lab note: assign the record to one of 1.0 for active, 0.0 for inactive

Q. Hi, sorry to bother you, what did the test record for CCNC(=O)[C@H]1[C@H](CO)[C@H]2Cn3c(ccc(-c4cccc(OC)c4)c3=O)[C@H]2N1Cc1nccs1 ?
A. 0.0

Q. Status in this test for N#C[C@@H]1[C@H](c2ccc(-c3cccnc3)cc2)[C@H](CO)N1C(=O)C1CC1 ?
A. 0.0

Q. For CC(=O)N(C)C[C@@H]1Oc2ncc(C#Cc3ccc(F)cc3)cc2C(=O)N([C@H](C)CO)C[C@@H]1C , which call appears in the assay record?
A. 0.0

Q. Which result was noted for this molecule in the test: O=C(Nc1cc(F)ccc1F)N1CCCCN2[C@H](CO)[C@@H](c3ccc(-c4cccnc4)cc3)[C@@H]2C1
A. 0.0

Q. Tell me the recorded outcome of this test for C[C@H](CO)N1C[C@H](C)[C@@H](CN(C)S(=O)(=O)c2ccc([N+](=O)[O-])cc2)OCc2ccccc2-c2c(n(C)c3ccccc23)C1=O .
A. 0.0

Q. // param item: CCCNC(=O)c1c(Cl)cnn1-c1ccc(C)cc1 ; yields the recorded call
A. 0.0

Q. For Cc1cccc(-n2ncc(Cl)c(Cl)c2=O)c1 , what call appears in the results of this test?
A. 1.0

Q. Answer briefly: the call reported for CC=Cc1ccc2n(c1=O)C[C@@H]1[C@@H](CO)[C@H](C(=O)N(C)C)N(CC3CCOCC3)[C@H]21 (mixture of isomers) in this assay.
A. 0.0

* * *

- test-summary: EWS/Fli-driven NR0B1 reporter inhibitors, primary screen, A673 cells, NR0B1 luciferase, luminescence, MLPCN library (AID 651661);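 further: firefly luciferase signal divided by Alamar Blue viability fluorescence both relative to DMSO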
- experimental-parameters: viability-normalised, at 12.6 µM, active compounds read high
The whole screen tested about 350,000 compounds, of which about 2,300 (0.66%) were called active. Many of the other results were omitted from the sample, so actives are more common in it than they were.
For each of the compounds below, state its inhibition.
Write it as a number; the unit % goes unstated.

Q. Quick one: inhibition of C[C@@H]1CN([C@H](C)CO)C(=O)c2cc(C#Cc3cccc(F)c3)cnc2O[C@H]1CN(C)Cc1ccccn1 ?
A. 6.4

Q. Entry O=C(NC1CCCC1)N1CC(=O)N2[C@H](C1)[C@H](c1ccc(/C=C/c3ccccc3)cc1)[C@@H]2CO : reported inhibition = ?
A. 3.76

Q. Entry under review: COc1ccc(NC(=O)N[C@@H]2C=C[C@H](CC(=O)NC3CCC3)O[C@@H]2CO)cc1 . Reported inhibition?
A. 3.89

Q. What measured inhibition goes with O=C(CCc1ccccc1Cl)Nc1ccc(S(=O)(=O)Nc2nccs2)cc1 ?
A. 8.82

Q. Query (compound): COCC(=O)Nc1ccc2c(c1)OC[C@H](C)N(Cc1ccccc1)C[C@H](C)[C@@H](OC)CN(C)C2=O ; field requested: inhibition
A. 20.9

Q. // inhibition lookup, key: O=C(C[C@H]1C[C@H]2c3cc(NC(=O)c4ccc5c(c4)OCO5)ccc3O[C@H]2[C@@H](CO)O1)NCc1cccc(F)c1
A. -0.435

Q. I'd like to know its inhibition. The compound in question is O=C([C@H]1[C@H](CO)[C@H]2Cn3c(cccc3=O)[C@@H]1N2Cc1cocn1)N1CCCCC1
A. -0.44

Q. Fill in the blank: the reported inhibition of COCC(=O)Nc1ccc2c(c1)OC[C@@H](C)N(CCc1ccccc1)C[C@H](C)[C@@H](OC)CN(C)C2=O is ____.
A. 53.4

Q. Given the entry CC(C)NC(=O)N1[C@H](C#N)[C@H](c2ccc(C#CC3CCCCC3)cc2)[C@H]1CO , report its measured inhibition.
A. 19.7

Q. What does the data say about its inhibition? Entry: C/C=C/c1ccc(C2[C@H]3CNC[C@@H]2N3Cc2cccc(F)c2)cc1 (some centres not stated)
A. 4.29

Q. Request the reported inhibition associated with CNC[C@H]1OCCCC[C@@H](C)Oc2ccc(NC(=O)Nc3ccc(C(F)(F)F)cc3)cc2C(=O)N([C@H](C)CO)C[C@H]1C
A. -7.97

Q. What inhibition value was documented for this compound, CC(C)NC(=O)Nc1ccc2c(c1)C(=O)N([C@@H](C)CO)C[C@H](C)[C@H](CN(C)C(=O)c1ccccc1)OCCCC[C@@H](C)O2 ?
A. 5.19

Q. # inhibition lookup, item N#C[C@@H]1[C@H](c2ccccc2-c2ccccc2F)[C@@H](CO)N1C(=O)c1ccccn1
A. 31.4

Q. inhibition for Cc1nnc(NC(=O)CSc2nccn2-c2cccc(C)c2C)s1 ?
A. 60.5

Q. Which value of inhibition has been reported for COc1ccccc1-n1ccnc1SCC(=O)NC(C)(C)C in the records?
A. 0.699

Q. # get_value(readout='inhibition', item= O=C(C[C@H]1C[C@H]2c3cc(NC(=O)NC4CCCC4)ccc3O[C@H]2[C@H](CO)O1)NCCc1ccccc1 )
A. -0.115

Q. Look up inhibition: O=C(C1CCOCC1)N1CC(=O)N2[C@H](CO)[C@H](c3ccc(C#Cc4cccc(F)c4)cc3)[C@H]2C1
A. 3.5

* * *

- test-summary: EWS/Fli-driven NR0B1 reporter inhibitors, primary screen, A673 cells, NR0B1 luciferase, luminescence, MLPCN library (AID 651661);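 further: firefly luciferase signal divided by Alamar Blue viability fluorescence both relative to DMSO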
- experimental-parameters: viability-normalised, at 12.6 µM, active compounds read high
In all, about 350,000 compounds went through this assay and about 2,300 (0.66%) were called active. The entries come from a sample that favours actives as a whole.
readout-kind: inhibition (%)
Kindly provide the numeric value in % only, without the unit symbol.

Q. Query: inhibition; subject: Cc1ccc(C(=O)Nc2nc3ccc(Cl)cc3s2)o1
A. -92.8

Q. Look at this molecule and give its reported inhibition. CCOc1ccc(CCN2C(=O)c3cccnc3C2=O)cc1OCC
A. 9.92

Q. # get_value(readout='inhibition', item= NC1=CC(=O)C(=O)c2cccnc21 )
A. 57.3

Q. // returns reported inhibition for input Cc1noc(C)c1NC(=O)N(C)C[C@H]1OCCCC[C@@H](C)Oc2ccc(NS(=O)(=O)c3ccc(Cl)cc3)cc2C(=O)N([C@@H](C)CO)C[C@H]1C
A. -7.3

Q. What value of measured inhibition is listed for C[C@H](CO)N1C[C@H](C)[C@@H](CN(C)CC2CC2)OCCCC[C@H](C)Oc2ccc(NC(=O)Cc3ccccc3)cc2C1=O ?
A. 32

Q. Which inhibition is reported for this molecule? COc1cnc(-c2ccccn2)nc1Oc1ccc(C(C)(C)C)cc1
A. 18.9

Q. Look up inhibition for this molecule: CC(C)(C)c1ccc(Oc2ccc(N)cc2)cc1
A. 65.3

Q. I would be grateful if you could share the reported inhibition for C[C@@H]1CCCCO[C@@H](CN(C)C(=O)c2ccccc2)[C@H](C)CN([C@@H](C)CO)C(=O)c2cc(NS(=O)(=O)c3cn(C)cn3)ccc2O1 .
A. -5.15

Q. Value lookup for inhibition; key = C[C@@H]1CN([C@H](C)CO)C(=O)c2cc(NC(=O)C3CCCCC3)ccc2O[C@@H]1CN(C)CC1CCCCC1
A. 1.73

Measured values drawn from PubChem BioAssay AID651661 for this set.
